- protocol.details: protein stability index of a GFP-peptide fusion (GPS, HEK-293T) (PSI 1-6); higher = more stable;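 further: 24-mer peptide tiles fused after GFP, lentivirally expressed, FACS-sorted into six equal bins by GFP/DsRed ratio, decoded by Illumina sequencing, PSI is the read-weighted mean bin number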
- condition.label: treatment: DMSO; c terminus: a fixed tail appended
Reported protein stability index is given for each of the following sequences.
Response field accepts a number only; no unit should be typed.

# example entries with known answers
seq	protein stability index
SCQEVLRKGCLRFQLPERGSRLCL [DFFB]	2.27
EGPMEEEEAQPMAAPEGKRSLANG [EID1]	5.66
PFFVLNSDVICDFPFQAMVQFHRH [GMPPB]	2.4
SSSSRVLLRQQLMRAQAQEQERRE [TFE3]	4.87

Now look at this entry.
Prompt: Returns the measured protein stability index for the input sequence. Input: VLGTKVDAERDGVKVPTTLAEYCV [CDC34]
Completion: 4.07

###

Reported protein stability index is given for each of the following sequences.
- protocol.details: protein stability index of a GFP-peptide fusion (GPS, HEK-293T) (PSI 1-6); higher = more stable
- condition.label: treatment: MLN4924 1 uM, 8 h; c terminus: a fixed tail appended
Response field accepts a number only; no unit should be typed.

seq	protein stability index
YISRKYFATRPGAIETAMEDLKGH [TPRG1]	2.81
QNPGKFDELDMSPGDPKWLDVIER [TBC1D10A]	4.49
PRKTAAPVNALVSHLLVVEPEKLY [ESRRA]	2.5
IRLKESINCQLSDPSSTKPGTLLK [TRIM14]	3.48
SSPSNMLPVRPQTNALIGGPMPMS [CLINT1]	3.7

Prompt: Returns the measured protein stability index for the input sequence. Input: HPLAYGMVGPLAQDPQSPMAGLRW [POMT2]
Completion: 2.77

###

Reported protein stability index is given for each of the following sequences.
- protocol.details: protein stability index of a GFP-peptide fusion (GPS, HEK-293T) (PSI 1-6); higher = more stable
- condition.label: treatment: MLN4924 1 uM, 8 h; c terminus: a fixed tail appended
Response field accepts a number only; no unit should be typed.

seq	protein stability index
LEEKCQQPASELLQDVRVNQSRCE [TRIM15]	5.53

Prompt: Returns the measured protein stability index for the input sequence. Input: EHRRTARRTPPGQQRPHPRSHSRE [ELOA2]
Completion: 5.32

Prompt: Returns the measured protein stability index for the input sequence. Input: FRIFIIWAISSWFRRGPAPQDQAG [CLPTM1]
Completion: 1.87

Prompt: Returns the measured protein stability index for the input sequence. Input: ETILHFFVQILLALHHVHTHLILH [NEK8]
Completion: 3.31

###

- protocol.details: protein stability index of a GFP-peptide fusion (GPS, HEK-293T) (PSI 1-6); higher = more stable
- condition.label: treatment: DMSO; c terminus: a fixed tail appended
# protein stability index binned as bin 1 (below 3), bin 2 (3 to below 5), bin 3 (5 or more)

Before answering, review these 2 worked examples.
seq	category
EDLATAYNNRGQIKYFRVDFYEAM [TTC32]	bin 1
EWIKLDYHRRHNPKTNEDFEFLYN [IQUB]	bin 1

Prompt: Sort into band: SAAPGHPQDGSYPRQADHDDHECC [KCNA1]
Completion: bin 3

Prompt: Sort into band: QRRHGWNPKDCSENIEVKEGGLYF [SPSB2]
Completion: bin 2

Prompt: Sort into band: RYAPLSFRNPMMSKLRNYRKDLAK [VTI1B]
Completion: bin 1

Prompt: Sort into band: LVITDFFGHLINGAIAVFVYASDK [PTGFR]
Completion: bin 2

Prompt: Sort into band: SEMKKCSDYESIEVPDSYTGPRLS [PPEF2]
Completion: bin 2

Prompt: Sort into band: GTDGYMPRELASMSLVLHGNNLLV [KLHDC10]
Completion: bin 1

Prompt: Sort into band: DPDINMHPFFFALGKILSVELGKQ [FADS1]
Completion: bin 1

Prompt: Sort into band: YEDGTELTEDYFPSVPDNAELVLL [DFFB]
Completion: bin 2

Prompt: Sort into band: GQLRVFGAGLLSSISELKHALSGH [TPH1]
Completion: bin 1

Source of measurements: the supplement of paper PMC10567573
